# experimentalTarget: Endothelin-1 receptor (Rattus norvegicus)
# Sequence (P26684 whole entry): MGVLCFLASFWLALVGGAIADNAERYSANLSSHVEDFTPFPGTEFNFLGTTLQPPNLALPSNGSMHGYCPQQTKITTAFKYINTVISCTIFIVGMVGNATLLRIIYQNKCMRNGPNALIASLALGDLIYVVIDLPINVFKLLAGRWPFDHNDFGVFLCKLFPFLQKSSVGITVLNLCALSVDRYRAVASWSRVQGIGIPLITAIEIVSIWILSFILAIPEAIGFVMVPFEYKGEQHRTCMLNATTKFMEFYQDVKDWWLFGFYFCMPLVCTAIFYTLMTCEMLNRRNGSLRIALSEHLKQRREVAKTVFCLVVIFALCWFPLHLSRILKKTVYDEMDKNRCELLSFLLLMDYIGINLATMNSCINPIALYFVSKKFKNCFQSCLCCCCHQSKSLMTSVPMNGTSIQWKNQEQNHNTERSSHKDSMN
# assayOverview: Inhibitory activity was evaluated against ET- A Binding to Endothelin A receptor in MMQ cell homogenates
propertyName: IC50
Answer format: number, then unit.

Challenge: Please give the measured IC50 for this molecule: `CCN(CC)C(=O)N[C@@H](CC(C)C)C(=O)N[C@H](Cc1c[nH]c2ccccc12)c1nc(C(=O)O)c(C)o1`
Response given: 3 µM

Challenge: For `Cc1oc([C@@H](Cc2cn(C)c3ccccc23)NC(=O)[C@H](CC(C)C)NC(=O)NC2(C)CCCCC2)nc1C(=O)O` then?
Response given: 0.2 µM

Challenge: For `Cc1oc([C@@H](Cc2c[nH]c3ccccc23)NC(=O)[C@H](CC(C)C)NC(=O)N2CCCCCC2)nc1C(=O)NCC(=O)O` then?
Response given: 1.9 µM

Challenge: For Cc1[nH]c([C@@H](Cc2cn(C)c3ccccc23)NC(=O)[C@H](CC(C)C)NC(=O)NC2CCCC(C)C2)nc1C(=O)O (some centres undefined) then?
Response given: 0.026 µM

Challenge: For `Cc1oc([C@@H](Cc2cn(C)c3ccccc23)NC(=O)[C@H](CC(C)C)NC(=O)Nc2cccc(F)c2)nc1C(=O)O` then?
Response given: 0.066 µM

Challenge: For `CCN(CC)C(=O)N[C@@H](CC(C)C)C(=O)N[C@H](Cc1c[nH]c2ccccc12)c1nc(C(=O)O)c(C)[nH]1` then?
Response given: 1 µM

Challenge: For `Cc1oc([C@@H](Cc2cn(C)c3ccccc23)NC(=O)[C@H](CC(C)C)NC(=O)NC23CC4CC(CC(C4)C2)C3)nc1C(=O)O` then?
Response given: 0.9 µM

Challenge: For `Cc1[nH]c([C@@H](Cc2c[nH]c3ccccc23)NC(=O)[C@H](CC(C)C)NC(=O)NCc2ccccc2)nc1C(=O)O` then?
Response given: 2.1 µM

Challenge: For `Cc1oc([C@@H](Cc2cn(C)c3ccccc23)NC(=O)[C@H](CC(C)C)NC(=O)NC2CCCC2)nc1C(=O)O` then?
Response given: 0.3 µM
